Consider the following compounds; for each one, report its inhibition.
# system tested: Replicase polyprotein 1ab (Severe acute respiratory syndrome coronavirus 2)
# assay text: Inhibition of SARS-CoV-2 3CLPro using DabcylKNSTLQSGLRK-Edans as substrate at 50 uM preincubated for 30 mins followed by substrate addition measured after 20 mins by FRET assay relative to control
# experimental parameters: time 50.0 min
The answer is to be given in %; state only the numeric part.

INPUT: Quick one: give measured inhibition for O=C(/C=C/c1c(Cl)c(O)c(O)c(O)c1Cl)c1c(Cl)cc(F)cc1Cl
OUTPUT: 1.1

INPUT: Look up and report measured inhibition for this entry: O=C(/C=C/c1cc(O)c(O)c(O)c1Cl)c1ccc(F)cc1
OUTPUT: 1.1

INPUT: // fetch inhibition given entry O=C(O)CCc1c(Cl)c(O)c(O)c(O)c1Cl
OUTPUT: 1

INPUT: Identify measured inhibition corresponding to O=C(O)/C=C/c1c(Cl)c(O)c(O)c(O)c1Cl
OUTPUT: 2.9

INPUT: State, in one line, measured inhibition of O=C(/C=C/c1cc(O)c(O)c(O)c1)c1ccc(F)cc1
OUTPUT: 0.5

INPUT: In one line, give reported inhibition of the entry O=C(/C=C/c1c(Cl)c(O)c(O)c(O)c1Cl)c1ccc(C(F)(F)F)cc1 .
OUTPUT: 1.5

INPUT: Tell us which inhibition value is on record for O=C(/C=C/c1c(Cl)c(O)c(O)c(O)c1Cl)c1ccc(Cl)cc1
OUTPUT: 0.4

INPUT: Give reported inhibition value for O=C(/C=C/c1c(Cl)c(O)c(O)c(O)c1Cl)c1ccc(Cl)cc1Cl
OUTPUT: 0.6

INPUT: Output inhibition of O=C(/C=C/c1c(Cl)c(O)c(O)c(O)c1Cl)c1ccc(O)cc1
OUTPUT: 1.9

INPUT: Using known records, supply inhibition for Oc1cc(CCCc2ccc(F)cc2)cc(O)c1O
OUTPUT: 2

INPUT: Note down inhibition recorded for O=C(/C=C/c1c(Cl)c(O)c(O)c(O)c1Cl)c1ccccc1F
OUTPUT: 3.1

INPUT: For the compound O=C(/C=C/c1c(Cl)c(O)c(O)c(O)c1Cl)c1ccc(F)cc1F , give its measured inhibition value.
OUTPUT: 1.1

INPUT: Please look at this compound and report its inhibition: O=C(/C=C/c1c(Cl)c(O)c(O)c(O)c1Cl)c1ccc(-c2ccc(F)cc2)cc1
OUTPUT: 0.6

INPUT: Provide one value: measured inhibition of CC(=O)Oc1c(Cl)c(/C=C/C(=O)c2ccc(F)cc2)c(Cl)c(OC(C)=O)c1OC(C)=O
OUTPUT: 1

INPUT: Supply inhibition value. Item: O=C(/C=C/c1c(Cl)c(O)c(O)c(O)c1Cl)c1ccc(Cl)c(Cl)c1
OUTPUT: -0.3

INPUT: Please look at this compound and report its inhibition: O=C(/C=C/c1c(Cl)c(O)c(O)c(O)c1Cl)c1c(Cl)c(O)c(O)c(O)c1Cl
OUTPUT: 0.2

INPUT: State, in one line, measured inhibition of O=C(/C=C/c1c(Cl)c(O)c(O)c(O)c1Cl)c1c(Cl)cc(Cl)cc1Cl
OUTPUT: 0.7

INPUT: Specify measured inhibition for O=C(/C=C/c1c(Cl)c(O)c(O)c(O)c1Cl)c1ccc(Br)cc1 .
OUTPUT: -0.3

INPUT: Query inhibition for O=C(O)/C=C/c1c(Cl)c(O)c(O)c(O)c1Br
OUTPUT: 1.8

INPUT: Check the records and state inhibition for O=C(/C=C/c1c(Cl)c(O)c(O)c(O)c1Cl)c1ccc(F)cc1Cl
OUTPUT: 1.6

INPUT: Return reported inhibition. Input compound: O=C(/C=C/c1c(Cl)c(O)c(O)c(O)c1Cl)c1ccc([N+](=O)[O-])cc1
OUTPUT: -0.2

INPUT: Give the measured inhibition for O=C(/C=C/c1c(Cl)c(O)c(O)c(O)c1Cl)c1ccccc1
OUTPUT: -0.3
